# Tested on: Bacteroides stercoris
# method.summary: growth AUC relative to DMSO control (median of replicates) (fraction); higher = more growth (less inhibition), active = hit call of the paper
# experimental.context: 20 µM; 24 h
growth AUC vs 1: at or above is True, below is False.

[
  {
    "compound": "CCC(C)(c1ccc(O)cc1)c1ccc(O)cc1",
    "assayed.system": "Bacteroides stercoris",
    "category": "False"
  },
  {
    "compound": "CCOCCN(C(=O)CCl)C(=C(C)C)c1ccccc1",
    "assayed.system": "Bacteroides stercoris",
    "category": "False"
  },
  {
    "compound": "CCOP(=O)(SC(C)CC)N1CCSC1=O (stereo unspecified)",
    "assayed.system": "Bacteroides stercoris",
    "category": "True"
  },
  {
    "compound": "CCCCOCN(C(=O)CCl)c1c(CC)cccc1CC",
    "assayed.system": "Bacteroides stercoris",
    "category": "True"
  },
  {
    "compound": "O=C(O)c1cc(Cl)ccc1Cl",
    "assayed.system": "Bacteroides stercoris",
    "category": "False"
  }
]

Continue with the next compound.
Challenge: Say whether CN(C)C(CSS(=O)(=O)[O-])CSS(=O)(=O)[O-].[Na+].[Na+] shows growth AUC of 1 or more.
Response given: True

---

# Tested on: Streptococcus salivarius
# method.summary: growth AUC relative to DMSO control (median of replicates) (fraction); higher = more growth (less inhibition), active = hit call of the paper
# experimental.context: 20 µM; 24 h
attribute.measured: growth AUC

Measured growth AUC (Streptococcus salivarius), entry NCP(=O)(O)O : 1.02 (inactive)

---

Catalogue of growth AUC readings, one per entry.
# Tested on: Parabacteroides distasonis
# method.summary: growth AUC relative to DMSO control (median of replicates) (fraction); higher = more growth (less inhibition), active = hit call of the paper
# experimental.context: 20 µM; 24 h
Format: numeric value only, no unit, no commentary.

[
  {
    "molecule": "O=C1CCc2cccc3c2N1CC3",
    "assayed.system": "Parabacteroides distasonis",
    "growth AUC": 1.03
  },
  {
    "molecule": "c1ccc2c(c1)cc1ccc3cccc4ccc2c1c34",
    "assayed.system": "Parabacteroides distasonis",
    "growth AUC": 0.994
  },
  {
    "molecule": "CC1=NNC(=O)N(/N=C/c2cccnc2)C1",
    "assayed.system": "Parabacteroides distasonis",
    "growth AUC": 1.01
  },
  {
    "molecule": "CC1(C(=O)Nc2ccc(O)c(Cl)c2Cl)CCCCC1",
    "assayed.system": "Parabacteroides distasonis",
    "growth AUC": 1.05
  },
  {
    "molecule": "CC(C)N(Cc1ccccc1)C(=O)C(C)(C)C",
    "assayed.system": "Parabacteroides distasonis",
    "growth AUC": 0.989
  },
  {
    "molecule": "CO/C=C(/C(=O)OC)c1ccccc1COc1cccc(C(F)(F)F)n1",
    "assayed.system": "Parabacteroides distasonis",
    "growth AUC": 0.558
  },
  {
    "molecule": "CCOC(=O)CC(SP(=S)(OC)OC)C(=O)OCC (centres undefined)",
    "assayed.system": "Parabacteroides distasonis",
    "growth AUC": 0.959
  },
  {
    "molecule": "CNC(=O)Oc1cccc2c1OC(C)(C)C2",
    "assayed.system": "Parabacteroides distasonis",
    "growth AUC": 0.992
  }
]

Measured growth AUC, CCSC(=O)N1CCCCCC1 : 0.997

Measured growth AUC, CCS(=O)c1c(C#N)nn(-c2c(Cl)cc(C(F)(F)F)cc2Cl)c1N (centres undefined) : 0.949

---

# System: Bacteroides thetaiotaomicron
# method.summary: growth AUC relative to DMSO control (median of replicates) (fraction); higher = more growth (less inhibition), active = hit call of the paper
# experimental.context: 20 µM; 24 h
attribute.measured: growth AUC
Format: numeric value only, no unit, no commentary.

[
  {
    "compound": "CCCCCCCCSC(=O)Oc1cc(Cl)nnc1-c1ccccc1",
    "growth AUC": 1.02
  },
  {
    "compound": "O=c1oc2ccccc2c(O)c1C1CC(c2ccc(-c3ccccc3)cc2)Cc2ccccc21 (stereo not given)",
    "growth AUC": 0.76
  }
]

Measured growth AUC, CCOc1nc(NC)nc(NC(=O)NS(=O)(=O)c2ccccc2C(=O)OC)n1 : 0.988

Measured growth AUC, O=[N+]([O-])c1cc(Cl)ccc1Cl : 0.989

Measured growth AUC, COc1cc(C)c(C(=O)c2c(OC)ccc(Br)c2C)c(OC)c1OC : 0.951

---

Catalogue of growth AUC readings, one per entry.
# System: Lactobacillus paracasei
# method.summary: growth AUC relative to DMSO control (median of replicates) (fraction); higher = more growth (less inhibition), active = hit call of the paper
# experimental.context: 20 µM; 24 h
Format: numeric value only, no unit, no commentary.

Would you please look over these solved cases?
[
  {
    "molecule": "CCCSP(=S)(OCC)Oc1ccc(SC)cc1 (stereo unspecified)",
    "assayed.system": "Lactobacillus paracasei",
    "reported.measurement": 1.02
  },
  {
    "molecule": "Clc1ccc(C2(Cn3cncn3)CC(Br)CO2)c(Cl)c1 (stereo unspecified)",
    "assayed.system": "Lactobacillus paracasei",
    "reported.measurement": 0.987
  },
  {
    "molecule": "Clc1cccc(Cl)c1Cl",
    "assayed.system": "Lactobacillus paracasei",
    "reported.measurement": 1.03
  },
  {
    "molecule": "CCOP(=O)(Sc1ccccc1)Sc1ccccc1",
    "assayed.system": "Lactobacillus paracasei",
    "reported.measurement": 0.953
  },
  {
    "molecule": "COc1cnc(OC)n2nc(NS(=O)(=O)c3c(OCC(F)F)cccc3C(F)(F)F)nc12",
    "assayed.system": "Lactobacillus paracasei",
    "reported.measurement": 0.965
  },
  {
    "molecule": "CCNP(=S)(OC)O/C(C)=C/C(=O)OC(C)C (stereo unspecified)",
    "assayed.system": "Lactobacillus paracasei",
    "reported.measurement": 0.994
  }
]

Continue with the next molecule.
Measured growth AUC, O=C(NC(=O)c1c(F)cccc1F)Nc1cc(Cl)c(Oc2ncc(C(F)(F)F)cc2Cl)c(Cl)c1 : 1.02

---

# System: Bacteroides stercoris
# method.summary: growth AUC relative to DMSO control (median of replicates) (fraction); higher = more growth (less inhibition), active = hit call of the paper
# experimental.context: 20 µM; 24 h
Catalogue of growth AUC readings, one per entry.
Format: numeric value only, no unit, no commentary.

Would you please look over these solved cases?
[
  {
    "molecule": "O=C(O)C1(O)c2ccccc2-c2ccc(Cl)cc21 (stereo unspecified)",
    "reported.measurement": 1.04
  },
  {
    "molecule": "Cc1cnc(C2=NC(C)(C(C)C)C(=O)N2)c(C(=O)O)c1 (stereo unspecified)",
    "reported.measurement": 0.976
  },
  {
    "molecule": "Cc1ccccc1[N+](=O)[O-]",
    "reported.measurement": 1.01
  },
  {
    "molecule": "CCNc1nc(Cl)nc(NCC)n1",
    "reported.measurement": 1.02
  },
  {
    "molecule": "CCCCCCCC(=O)Oc1c(I)cc(C#N)cc1I",
    "reported.measurement": 1.1
  }
]

Measured growth AUC, CCOC(=O)C(O)(c1ccc(Cl)cc1)c1ccc(Cl)cc1 : 0.376

Measured growth AUC, CCOP(=S)(OCC)Oc1cc(-c2ccccc2)on1 : 0.961

Measured growth AUC, Cc1nnc(-c2ccccc2)c(=O)n1N : 0.945

Measured growth AUC, COC(=O)NC(=S)Nc1ccccc1NC(=S)NC(=O)OC : 1.12

Measured growth AUC, CC(C)N(C(=O)COc1nnc(C(F)(F)F)s1)c1ccc(F)cc1 : 0.973

Measured growth AUC, CC1(C)C(C=C(Cl)Cl)C1C(=O)OCc1cccc(Oc2ccccc2)c1 (mixture of isomers) : 1.07

---

Catalogue of growth AUC readings, one per entry.
# System: Eubacterium rectale
# method.summary: growth AUC relative to DMSO control (median of replicates) (fraction); higher = more growth (less inhibition), active = hit call of the paper
# experimental.context: 20 µM; 24 h

Would you please look over these solved cases?
[
  {
    "molecule": "COP(=O)(NC(C)=O)SC (configuration not stated)",
    "assayed.system": "Eubacterium rectale",
    "reported.measurement": "0.921 (inactive)"
  },
  {
    "molecule": "CCOP(=O)(NC(C)C)Oc1ccc(SC)c(C)c1 (configuration not stated)",
    "assayed.system": "Eubacterium rectale",
    "reported.measurement": "1.04 (inactive)"
  }
]

Measured growth AUC (Eubacterium rectale), entry CCC(C)(C)C(=O)OC1=C(c2ccc(Cl)cc2Cl)C(=O)OC12CCCCC2 : 0.906 (inactive)

Measured growth AUC (Eubacterium rectale), entry c1cc2ccc3cccc4ccc(c1)c2c34 : 1.04 (inactive)
